Biological target: human GLP-1 receptor (human, UniProt P43220 24-463)
Assay: cell-based or functional assay
Bridges are numbered along the chain shown (N, C = ends). Where no end group is shown, it is not given here. [ ]: non-standard residue; d: D form. The star is where a group is joined. Acetyl(2-(4-imidazolyl)) = O=C(Cc1c[nH]cn1)*; Aib = CC(C)(N)C(=O)O
Could you please report measured In vitro activity relative to native peptide (%) vs. GLP-1 for the items listed next?
Kindly provide the numeric value in % only, without the unit symbol.

Consider the binder Y[Aib]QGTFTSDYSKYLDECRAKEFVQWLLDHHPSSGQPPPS (bridge 16-20) [triple agonist of SEQ ID NO: 21] and give its measured In vitro activity relative to native peptide (%) vs. GLP-1. 17.8

Consider the binder H[Aib]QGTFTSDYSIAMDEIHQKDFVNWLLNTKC (bridge 16-20) [triple agonist of SEQ ID NO: 35] and give its measured In vitro activity relative to native peptide (%) vs. GLP-1. 7.5

Consider the binder [Acetyl(2-(4-imidazolyl))]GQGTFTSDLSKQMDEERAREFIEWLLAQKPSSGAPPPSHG [triple agonist of SEQ ID NO: 17] and give its measured In vitro activity relative to native peptide (%) vs. GLP-1. 0.2

Consider the binder [Acetyl(2-(4-imidazolyl))][Aib]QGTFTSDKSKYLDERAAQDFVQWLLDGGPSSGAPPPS [triple agonist of SEQ ID NO: 62] and give its measured In vitro activity relative to native peptide (%) vs. GLP-1. 5.2

Consider the binder H[Aib]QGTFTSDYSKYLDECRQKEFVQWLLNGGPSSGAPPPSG (bridge 16-20) [triple agonist of SEQ ID NO: 37] and give its measured In vitro activity relative to native peptide (%) vs. GLP-1. 236
